Below is a list of entries, each paired with its recorded self-cleavage value.
B1: LINE1-full (parent)
chain: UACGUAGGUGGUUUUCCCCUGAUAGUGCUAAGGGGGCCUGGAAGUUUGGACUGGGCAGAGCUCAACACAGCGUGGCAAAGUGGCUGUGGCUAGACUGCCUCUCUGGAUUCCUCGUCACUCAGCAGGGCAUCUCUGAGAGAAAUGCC

# Variants of: B1
# test_details: self-cleavage, relative activity (ratio to wild type); higher = more cleavage; in vitro, sequencing; the parent is a self-cleaving ribozyme
experimental_readout: self-cleavage

[
  {
    "construct_sequence": "UACGUAGGUGGUUUUCCCCUGAUAGUGCUAAGGGGGCCUGGAAGUUUGGACUGGGCAGAGCUCAACACUGCGUGGCAAAGUGGCUGUGGCUAGACUGCCUCUCUGGAUUCCUCGUCACUCAGCAGGGCUUCUCUGAGAGAAAUGCC [A69U A129U]",
    "experimental_readout": "self-cleavage",
    "recorded_result": 0.06
  },
  {
    "construct_sequence": "UACGUAGGUGGUUUUCCCCUGAUAGUGCUAAGGGGGCCUGGGAGUUUGGACUGGGCAGAGCUCAACACAGCGUGGCAAAGUGGCUGUGGCUAGACUGCCUCUCUGGAUUCCUCGUCACUCAGCAGGGCGUCUCUGAGAGAAAUGCC [A42G A129G]",
    "experimental_readout": "self-cleavage",
    "recorded_result": 1.68
  },
  {
    "construct_sequence": "UACGUAGGUGGUUGUCCCCUGAUAGUGCUAAGGGGGCCUGGAAGUUUGGACUGGGCAGAGCUCAACACAGCGUGGCAGAGUGGCUGUGGCUAGACUGCCUCUCUGGAUUCCUCGUCACUCAGCAGGGCAUCUCUGAGAGAAAUGCC [U14G A78G]",
    "experimental_readout": "self-cleavage",
    "recorded_result": 1.23
  },
  {
    "construct_sequence": "UACGUAGGUGGUUUUCCCCUGAUAGUGCUAAGGUGGCCUGGAAGUUUGGACAGGGCAGAGCUCAACACAGCGUGGCAAAGUGGCUGUGGCUAGACUGCCUCUCUGGAUUCCUCGUCACUCAGCAGGGCAUCUCUGAGAGAAAUGCC [G34U U52A]",
    "experimental_readout": "self-cleavage",
    "recorded_result": 1.22
  },
  {
    "construct_sequence": "UACGUAGGUGGUCUUCCCCUGAUAGUGCUAAGGGGGCCUGGAAGUUUGGACUGGGCAGAGCUCAACACAGCGUGGCAAAGUGGCUGUGGCUAGACUGCCUCUCUGGAUUCAUCGUCACUCAGCAGGGCAUCUCUGAGAGAAAUGCC [U13C C111A]",
    "experimental_readout": "self-cleavage",
    "recorded_result": 1.57
  },
  {
    "construct_sequence": "UAUGUAGGUGGUUUUCCCCUGAUAGUGCUAAGGGGGCCUGAAAGUUUGGACUGGGCAGAGCUCAACACAGCGUGGCAAAGUGGCUGUGGCUAGACUGCCUCUCUGGAUUCCUCGUCACUCAGCAGGGCAUCUCUGAGAGAAAUGCC [C3U G41A]",
    "experimental_readout": "self-cleavage",
    "recorded_result": 2.76
  },
  {
    "construct_sequence": "UACGUAGGUGGUUUUCCCCUGAUAGUGCUAAGGGGGCCUGGAAGUUUGGACUGGGCAGAGCUCAACACAGCGUGGCAAAGGGGCUGUGGCUAGACUGCCUCUCUGGAUUCCUCGUCACUCAGCAGGGCAUCUCUGAGAGAGAUGCC [U81G A141G]",
    "experimental_readout": "self-cleavage",
    "recorded_result": 1.85
  },
  {
    "construct_sequence": "UACGUAGGUGGUUUUCCCCUGAUAGUGCUAAGGGGGCCUGGAAGUUUGGACUGGGCAGAGCUUAACACAGCGUGGCAAAGUGGCUGUGGCUAGACUGCCUCUCUGGAUUCCUCGUCACUCAGCAGGGCAUCUCUGAGAGAAACGCC [C63U U143C]",
    "experimental_readout": "self-cleavage",
    "recorded_result": 0.3
  },
  {
    "construct_sequence": "UACGUAGGUGGAUUUCCCCUGAUAGUGCUAAGGGGGCCUGGAAGUUUGGACUGGGCAGAGCUCAACACAGCGUGGCAAAGUGGCUGUGGCUAGACUGCCUCUCUGGAUUCCCCGUCACUCAGCAGGGCAUCUCUGAGAGAAAUGCC [U12A U112C]",
    "experimental_readout": "self-cleavage",
    "recorded_result": 1.3
  },
  {
    "construct_sequence": "UACGUAGGUGGUUUUCCCCUGAUAGUGCUAAGGGGGCCUGGAAGUUUGGACUGGGCUGAGCUCGACACAGCGUGGCAAAGUGGCUGUGGCUAGACUGCCUCUCUGGAUUCCUCGUCACUCAGCAGGGCAUCUCUGAGAGAAAUGCC [A57U A64G]",
    "experimental_readout": "self-cleavage",
    "recorded_result": 0.1
  },
  {
    "construct_sequence": "UACGUAGGUGGUUUUCCCCUGAUAGUGCUAAGGGGGCCUGGAAGUUUGGACUGGGCAGAGCUCAACACAGCGUGGCAAAGUGGCUGUGGCUAGACUACCUCUCUGGAUUCCUCGUCACUCAGCAGUGCAUCUCUGAGAGAAAUGCC [G97A G126U]",
    "experimental_readout": "self-cleavage",
    "recorded_result": 0.07
  },
  {
    "construct_sequence": "UACGUAGGUGGUUUUCCCCUGAAAGUGCUAAGGGGGCCUGGAAGUUUGGACUGGGCAGAGCUCAACACAGCGUGGCAAAGUGGCUGUGGCUAGACUGCCUCUCUGGAUUCCUCGUCGCUCAGCAGGGCAUCUCUGAGAGAAAUGCC [U23A A117G]",
    "experimental_readout": "self-cleavage",
    "recorded_result": 2.16
  },
  {
    "construct_sequence": "UACGUAGGUGGUUUUCCCCUGAUAGUGCUAACGGGGCCUGGAAGUUUGGACUGGGCAGAGCUCAACACAGCGUGGCAAAGUGGCUGUGGCUAGACUGCCCCUCUGGAUUCCUCGUCACUCAGCAGGGCAUCUCUGAGAGAAAUGCC [G32C U100C]",
    "experimental_readout": "self-cleavage",
    "recorded_result": 2.13
  },
  {
    "construct_sequence": "UACGUAGGUGGUUUUCCCCUGAUAGUGCUAAGGGGGCCUGGAAGUUUGGACUGGGCAGUGCUCAACACAGCGUGGCAAAGUGGCUGUGGCUAGACUGCCUCUCUGGAUUCCUCGUCACUCAGCAGGGCAUCUCUGAGAGAAGUGCC [A59U A142G]",
    "experimental_readout": "self-cleavage",
    "recorded_result": 1.08
  },
  {
    "construct_sequence": "UACGUAGGUGGUCUUCCCCUGAUAGUGCUAAGGGGGCCUGGAAGUUUGGACUGGGCAGAGCUCAACAUAGCGUGGCAAAGUGGCUGUGGCUAGACUGCCUCUCUGGAUUCCUCGUCACUCAGCAGGGCAUCUCUGAGAGAAAUGCC [U13C C68U]",
    "experimental_readout": "self-cleavage",
    "recorded_result": 0.17
  },
  {
    "construct_sequence": "UACGUGGGUGGUUUUCCCCUGAUAGUGCUAAGGGGGCCUGGAAGUUUGGACUGGGCAGAGCUCAACACAGCGUGGCAAAGUGGCUGUGGCUAGACAGCCUCUCUGGAUUCCUCGUCACUCAGCAGGGCAUCUCUGAGAGAAAUGCC [A6G U96A]",
    "experimental_readout": "self-cleavage",
    "recorded_result": 0.2
  },
  {
    "construct_sequence": "UACGUAGGUGGUUUUCCCUUGAUAGUGCUAAGGGGGCCUGGAUGUUUGGACUGGGCAGAGCUCAACACAGCGUGGCAAAGUGGCUGUGGCUAGACUGCCUCUCUGGAUUCCUCGUCACUCAGCAGGGCAUCUCUGAGAGAAAUGCC [C19U A43U]",
    "experimental_readout": "self-cleavage",
    "recorded_result": 1.41
  },
  {
    "construct_sequence": "UACGUAGGUGGUUCUCCCCUGAUAGUGCUAAGGGGGCCUGGAAGUUUGGACUGGGCAGAGCUCAACACAGCGUGGCAAAGUGGCUGUGGCUAGACUGCCUCUCUGGAUUCCUCGUCACUCAGCAGGGCAUCUCUGAAAGAAAUGCC [U14C G137A]",
    "experimental_readout": "self-cleavage",
    "recorded_result": 0.82
  },
  {
    "construct_sequence": "UACGUAGGUGGUUUUCCCCUGAUAGUGCUAAGGGGGCCUGGCAGUUUGGACUGGGCAGAGCUCAACACAGCGUGGCAAAGUGGCUGUGGCUAGACUGCCUCUCUGGAUUCCUCGUCACUCAGCGGGGCAUCUCUGAGAGAAAUGCC [A42C A124G]",
    "experimental_readout": "self-cleavage",
    "recorded_result": 0.79
  },
  {
    "construct_sequence": "UACGUAGGUGGUUUUCCCCUGACAGUGCUAAGGGGGCCUGGAAGUUUGGACUGGGCAGAGCUCAACACAGCGUGGCAAAGUGGCAGUGGCUAGACUGCCUCUCUGGAUUCCUCGUCACUCAGCAGGGCAUCUCUGAGAGAAAUGCC [U23C U85A]",
    "experimental_readout": "self-cleavage",
    "recorded_result": 0.07
  },
  {
    "construct_sequence": "UACGUAGGUGGUUUUCCCCUGAAAGUGCUAAGGGGGCCUGGAAGUUUGGACUGGGCAGAGCUCAACACAGCGUGGCAAAGUGGCUGUGGCUAGACUGUCUCUCUGGAUUCCUCGUCACUCAGCAGGGCAUCUCUGAGAGAAAUGCC [U23A C98U]",
    "experimental_readout": "self-cleavage",
    "recorded_result": 0.26
  },
  {
    "construct_sequence": "UACGUAGGUGGUUUUCCCCUGAUAGUGCUAAGGGGGCCUGGUAGUUUGGACUGGGCAGAGCUCAACACAGCGUGGCAAAGUGGCUGUGGCUAGACUGCCUCUCUGGAUUCCUCGUCACUCAGCAGGGCACCUCUGAGAGAAAUGCC [A42U U130C]",
    "experimental_readout": "self-cleavage",
    "recorded_result": 1.32
  },
  {
    "construct_sequence": "UACGUAGGUGGUUUUCCCCUGAUAGUGCUUAGGGGGCCUGGAAGUUUGUACUGGGCAGAGCUCAACACAGCGUGGCAAAGUGGCUGUGGCUAGACUGCCUCUCUGGAUUCCUCGUCACUCAGCAGGGCAUCUCUGAGAGAAAUGCC [A30U G49U]",
    "experimental_readout": "self-cleavage",
    "recorded_result": 0.85
  }
]
